- Target entity: Tyrosyl-DNA phosphodiesterase 2 (Homo sapiens) (UniProt O95551)
- Sequence (O95551 whole entry, looked up): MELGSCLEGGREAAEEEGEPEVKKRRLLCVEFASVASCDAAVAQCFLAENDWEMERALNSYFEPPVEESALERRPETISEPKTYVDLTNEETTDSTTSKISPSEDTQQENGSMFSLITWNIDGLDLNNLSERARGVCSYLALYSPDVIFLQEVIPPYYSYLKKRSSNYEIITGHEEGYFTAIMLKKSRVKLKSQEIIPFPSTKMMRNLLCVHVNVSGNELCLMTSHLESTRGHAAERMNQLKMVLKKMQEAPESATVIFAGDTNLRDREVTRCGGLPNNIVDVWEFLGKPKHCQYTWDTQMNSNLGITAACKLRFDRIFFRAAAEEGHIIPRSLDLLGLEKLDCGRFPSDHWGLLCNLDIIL
- Method: blockers of TDP2 phosphodiesterase activity – biochemical, epi absorbance, recombinant enzyme, primary screen (AID 720702);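 further: 0% = DMSO with enzyme and 100% = buffer with substrate but no TDP2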
- Cond: recombinant TDP2, T5PNP hydrolysis, p-nitrophenol absorbance 415 nm; at 12.8 µM; active compounds read high
Among all 370,000 compounds or so, about 1,200 (0.32%) were called active. The sample holds actives, similar compounds and a random draw of the others, so the mix is not that of the screen.
Listing of recorded inhibition by entry.
Answer format: numeric, % implied, no suffix.

Nc1nc(O)c(CC(=O)O)s1	27.2
COC(=O)[C@]12C[C@H](CC(=O)NCCCN3CCCC3=O)C(=O)N(CCc3ccc(OC)c(OC)c3)C1=C[C@H](COCc1ccccc1)O[C@@H]2C	5.78
CN(C)c1ccc(C(CC(=O)O)C(=O)O)cc1 (stereo unspecified)	-4.74
O=C1C(Cl)=C(Oc2ccccc2)C(=O)c2ccccc21	3.22
CC(C)C(C#CC1CC1)N(Cc1ccc2c(c1)OCO2)C(N)=NC(=O)/C=C/c1cccc(C(F)(F)F)c1 (stereo unspecified)	4.77

Consider the additional molecule presented here.
-- ask Quick check: inhibition of COCCNc1nnc(SCC(=O)NNC(=O)c2ccco2)s1 ?
-- reply 5.04

----------
- Target entity: Tyrosyl-DNA phosphodiesterase 2 (Homo sapiens) (UniProt O95551)
- Method: blockers of TDP2 phosphodiesterase activity – biochemical, epi absorbance, recombinant enzyme, primary screen (AID 720702);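 further: 0% = DMSO with enzyme and 100% = buffer with substrate but no TDP2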
- Cond: recombinant TDP2, T5PNP hydrolysis, p-nitrophenol absorbance 415 nm; at 12.8 µM
Among all 370,000 compounds or so, about 1,200 (0.32%) were called active.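 How the source made its calls: active means inhibition above the mean of all tested compounds plus 3 SD, set per campaign (cut at about 25% in these data); inactive means the rest.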 For the sample, actives were picked, then their nearest neighbours and some compounds at random.
In this exercise, the only acceptable responses are YES = active, NO = inactive

Example entries and their recorded answers appear below.
Cc1cc(C)c(S(=O)(=O)c2ccc(F)cc2C)c(=O)[nH]1	NO
O=C(NC1CCCCC1)N1CCc2[nH]c3ccccc3c2C1	YES
O=C(NCc1ccccc1Cl)C(=O)NCC1CCCN1S(=O)(=O)c1cccs1 (stereo not given)	YES
O=C(NCc1ccc(Cl)cc1)C(=O)NCC1CCCN1S(=O)(=O)c1cccs1 (stereo not given)	NO

-- ask In this assay, the call recorded for COc1ccccc1CCNC(=O)C(=O)NCCC1CCCCN1S(=O)(=O)c1cccs1 (stereo not given) was what?
-- reply NO

----------
- Target entity: Tyrosyl-DNA phosphodiesterase 2 (Homo sapiens) (UniProt O95551)
- Method: blockers of TDP2 phosphodiesterase activity – biochemical, epi absorbance, recombinant enzyme, primary screen (AID 720702);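 further: 0% = DMSO with enzyme and 100% = buffer with substrate but no TDP2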
- Cond: recombinant TDP2, T5PNP hydrolysis, p-nitrophenol absorbance 415 nm; at 12.8 µM; active compounds read high
Screen size: about 370,000 compounds; about 1,200 (0.32%) were called active. The list comes from a sample in which actives are over-represented; it also holds close analogues and randomly drawn compounds.
Listing of recorded inhibition by entry.
Answer format: numeric, % implied, no suffix.

Guide cases for inhibition, answers given:
C=CCN(C)CC#Cc1ccccc1	-6.66
COc1ccc(N(CC(=O)Nc2cc(OC)cc(OC)c2)S(=O)(=O)c2c(C)n[nH]c2C)cc1	10.8
COCCn1nnnc1C(c1ccccc1Cl)N1CCN(c2ccccc2OC)CC1 (stereo not given)	-10.8
O=C(CN1C(=O)CSC1=O)N1CCCC(Nc2ccc(F)cc2)C1 (stereo not given)	-8.75
COc1ccc(CCC(C)N2CCc3ccccc3C2)cc1 (stereo not given)	-2.33

-- ask Quick check: inhibition of COCCn1nnnc1C(c1cc2ccc(OC)cc2[nH]c1=O)N1CCc2ccccc2C1 (stereo not given) ?
-- reply 41.1

-- ask Quick one: N#C/C(C(=O)N1CCOCC1)=C1/SC(Cc2ccc(F)cc2)C(=O)N1c1ccccc1 (stereo not given)
-- reply 2.43

-- ask Quick one: Cc1ccc(S(=O)(=O)N(CCCN(C)C)Cc2ccc3c(c2)OCO3)cc1
-- reply 3.37

-- ask Quick one: COC(=O)[C@@]12CCCCC3=C1N(CCC3)C(=O)[C@H]2CC(=O)NCc1cccc2ccccc12
-- reply 15.1

-- ask Quick one: O=C(N[C@H](C(=O)N1CCC[C@H]1C(=O)NCCc1ccccc1Cl)c1ccccc1)c1ccccc1
-- reply 3.26

----------
Listing of recorded inhibition by entry.
- Target entity: Tyrosyl-DNA phosphodiesterase 2 (Homo sapiens) (UniProt O95551)
- Method: blockers of TDP2 phosphodiesterase activity – biochemical, epi absorbance, recombinant enzyme, primary screen (AID 720702);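 further: 0% = DMSO with enzyme and 100% = buffer with substrate but no TDP2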
- Cond: recombinant TDP2, T5PNP hydrolysis, p-nitrophenol absorbance 415 nm; at 12.8 µM; active compounds read high
About 1,200 (0.32%) of roughly 370,000 compounds were called active. The list comes from a sample in which actives are over-represented; it also holds close analogues and randomly drawn compounds.
Answer format: numeric, % implied, no suffix.

Guide cases for inhibition, answers given:
C=CCN1C(=O)[C@H](CC(=O)N2CCN(C(=O)OCC)CC2)[C@@]2(C(=O)OCC)CCCC=C12	4.51
CCOc1ccc(C(C)NC(=O)CN2C(=O)NC3(CCCCC3)C2=O)cc1OCC (stereo not given)	-6.82
CCN1C(=O)c2cccc3c(S(=O)(=O)Nc4ccccc4O)ccc1c23	-2.02
O=C(Nc1cc(F)cc(F)c1)OC1CCC12CCC(c1ccccc1)CC2 (stereo not given)	3
CCOc1ccc(C(c2c(C)[nH][nH]c2=O)c2c(C)[nH][nH]c2=O)cc1OCC	25.3

Consider the additional compound presented here.
-- ask Quick check: inhibition of COC(=O)C1CN(CCc2ccccc2)CCS(=O)(=O)N1Cc1ccc(F)cc1 (stereo not given) ?
-- reply -8.99

----------
- Target entity: Tyrosyl-DNA phosphodiesterase 2 (Homo sapiens)
- Method: blockers of TDP2 phosphodiesterase activity – biochemical, epi absorbance, recombinant enzyme, primary screen (AID 720702);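 further: 0% = DMSO with enzyme and 100% = buffer with substrate but no TDP2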
- Cond: recombinant TDP2, T5PNP hydrolysis, p-nitrophenol absorbance 415 nm; at 12.8 µM; active compounds read high
In all, about 370,000 compounds went through this assay and about 1,200 (0.32%) were called active. The entries come from a sample that favours actives as a whole.
Readout type: inhibition (%)
Answer format: numeric, % implied, no suffix.

CC(=O)CCS(=O)(=O)c1ccc(C)c(C)c1	-9.65
COc1cc(NC(=S)NNC(=O)CC(C)C)c(OC)cc1Cl	8.52
Cc1ccc(CCNC(=O)C2CCN(S(=O)(=O)N3CCCC3)CC2)cc1	3.54
O=Cc1cn(-c2ccccc2)nc1-c1ccccn1	31.4
COCCCNC(=O)c1ccc(CNS(=O)(=O)c2ccc(NC(C)=O)cc2)cc1	-0.2

-- ask Quick check: inhibition of CSc1ccccc1OCc1cc(C(=O)N(C)CCc2c(C)n[nH]c2C)no1 ?
-- reply 6.82

-- ask Quick one: O=C(OCc1ccccc1)N1CCC2CC1c1ccc(-c3ccc4c(c3)OCO4)cc12 (centres undefined)
-- reply -3.35

-- ask Quick one: CC1=NN(c2ccc(Cl)c(C(=O)O)c2)C(=O)/C1=C/c1ccc(-c2ccccc2[N+](=O)[O-])o1
-- reply 36.1

-- ask Quick one: Cc1ccc(OCCCCc2c(C)n[nH]c2C)cc1
-- reply 25.9

----------
- Target entity: Tyrosyl-DNA phosphodiesterase 2 (Homo sapiens) (UniProt O95551)
- Method: blockers of TDP2 phosphodiesterase activity – biochemical, epi absorbance, recombinant enzyme, primary screen (AID 720702);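 further: 0% = DMSO with enzyme and 100% = buffer with substrate but no TDP2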
- Cond: recombinant TDP2, T5PNP hydrolysis, p-nitrophenol absorbance 415 nm; at 12.8 µM
In all, about 370,000 compounds went through this assay and about 1,200 (0.32%) were called active.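 How the source made its calls: active means inhibition above the mean of all tested compounds plus 3 SD, set per campaign (cut at about 25% in these data); inactive means the rest.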 Only a selection was taken, and actives are over-represented in it overall.
In this exercise, the only acceptable responses are active, inactive

COc1ccc(C(=O)OCCN2CCN(C3CN(Cc4cn(Cc5ccccc5F)nn4)S(=O)(=O)C3)CC2)cc1OC (stereo not given)	inactive
CC1CCN(c2ccc(C(=O)O)cc2NS(=O)(=O)c2ccc(Br)s2)CC1	inactive
CS(=O)(=O)N1CCCC(C(=O)N2CCOCC2)C1 (stereo not given)	inactive

-- ask In this assay, the call recorded for COc1cc(/C=C/C(=O)n2cnc3ccccc32)cc(OC)c1OC was what?
-- reply inactive

-- ask Quick one: CCSc1nnc(SCC(=O)NNC(=O)c2ccccc2F)s1
-- reply active

-- ask Quick one: N#Cc1c(N2CCCCC2)nc(N)c2c(N)nc(SCC(=O)O)cc12
-- reply inactive

-- ask Quick one: O=C1Nc2ccccc2OC1CC(=O)N1CCCCCCC1 (stereo not given)
-- reply inactive

-- ask Quick one: C=CCN1C(=O)[C@@H](CC(=O)NCCCCc2ccccc2)[C@]2(C(=O)OCC)CCCCC/C=C/12
-- reply inactive

-- ask Quick one: CC1Cc2nc(SCC(=O)Nc3ccccc3F)n(C)c(=O)c2S1 (stereo not given)
-- reply inactive

-- ask Quick one: C/C(=N/O)c1ccc(N2C(=O)C3C4C=CC(C3C2=O)C2C3C(=O)N(c5ccc(/C(C)=N/O)cc5)C(=O)C3C42)cc1 (stereo not given)
-- reply inactive

-- ask Quick one: COC(=O)CC1CCc2cc(C)cc(C(CC(C)C)NC(=O)[C@H](CC(C)C)NC(=O)OCc3ccccc3)c2O1 (stereo not given in full)
-- reply inactive

-- ask Quick one: Cc1sc2nc(SCC(=O)c3ccc(O)c(O)c3)n(Cc3ccco3)c(=O)c2c1C
-- reply inactive

-- ask Quick one: COc1ccc2c(c1)C(=O)Nc1cc(Cl)ccc1N2
-- reply inactive

-- ask Quick one: COc1ccc2c(c1)c(=Cc1ccc(N(C)C)cc1)c1cc(-c3ccccc3)[n+](C)n12
-- reply active

-- ask Quick one: O=C(NN1C(=O)C2C3C=CC(O3)C2C1=O)c1ccccc1 (stereo not given)
-- reply inactive

-- ask Quick one: Cc1ccc2nc(-c3ccc(NC(=O)CN(C)S(=O)(=O)c4ccccc4)cc3)sc2c1
-- reply inactive

-- ask Quick one: O=C1C(=O)N(Cc2ccc(-c3ccsc3)cc2)c2ccc(OC(F)(F)F)cc21
-- reply inactive

-- ask Quick one: Clc1ccc(C2=CSC3=Nc4cccc5cccc(c45)N23)cc1
-- reply active

-- ask Quick one: O=C1c2ccccc2-c2ncnc3c(N4CCOCC4)cc(N4CCOCC4)c1c23
-- reply inactive

-- ask Quick one: Cc1cc(C)nc(NC(=S)N2CCN(c3ccc(C(F)(F)F)cn3)CC2)c1
-- reply inactive

-- ask Quick one: C=CCN=C1NC(c2ccccc2)C(C(=O)OC)=C(C)N1Cc1ccc(C(F)(F)F)cc1 (stereo not given)
-- reply inactive

-- ask Quick one: CCc1ccc(OCC(=O)OC(C)C(=O)NC2CC2)cc1 (stereo not given)
-- reply inactive

-- ask Quick one: COc1ccc2c(c1)C(C)=CC(C)(C)N2C(=O)CNCc1ccc2c(c1)OCO2
-- reply inactive

-- ask Quick one: COC(=O)C1CN(Cc2cn(Cc3ccc(F)cc3)nn2)CCS(=O)(=O)N1Cc1ccc(Cl)cc1 (stereo not given)
-- reply inactive
